Measured drug sensitivity score of individual entries
- Test system: FMOC25_1 (patient-derived low-grade serous ovarian cancer cells)
- experiment-notes: drug sensitivity score (DSS3, normalised partial AUC of % inhibition dose-response) (DSS (score)); higher = more sensitive (stronger inhibition of viability); extreme values may be limits of the assay
- test-conditions: 72 h; library: FO4B; assay format: 2D, 384-well, CellTiter-Glo
Just the number, please, no unit after it.

smiles_str=COc1ccccc1S(=O)(=O)Nc1ccc2c(c1)CN(C)C(=O)N2 subject_of_test=FMOC25_1 property="drug sensitivity score" measurement=1.1
smiles_str=CC(C)NC[C@@H](C(=O)N1CCN(c2ncnc3c2[C@H](C)C[C@H]3O)CC1)c1ccc(Cl)cc1 subject_of_test=FMOC25_1 property="drug sensitivity score" measurement=7
smiles_str=CC1=C(/C=C/C(C)=C/C=C/C(C)=C/C(=O)O)C(C)(C)CCC1 subject_of_test=FMOC25_1 property="drug sensitivity score" measurement=0

Now consider a different compound.
Input line: Note down drug sensitivity score recorded for C[C@]12C=CC(=O)C=C1CC[C@@H]1[C@@H]2[C@@H](O)C[C@@]2(C)[C@H]1CC[C@]2(O)C(=O)CO
Output line: 0
